system: ATP; test: switch fluorescence ratio, 500 uM ATP over buffer (Cy3 cluster intensity, sum of 5 cycles each) (fold (ratio)); higher = stronger signal-on switching upon ATP binding; sequences stand for … in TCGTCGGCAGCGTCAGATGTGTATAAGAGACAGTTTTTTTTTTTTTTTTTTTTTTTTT…TC; conditions: aptamer strand: ATP DNA aptamer (quencher-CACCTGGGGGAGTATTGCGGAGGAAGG + anchor), 100 nM annealed; ATP concentration: 500 uM;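 note: ATP exposure 15 min at 22 °C before imaging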
RECORDED METRIC: switch fluorescence ratio

Answered cases to consult:
| SEQ TEXT | switch fluorescence ratio |
| --- | --- |
| GGGGCATGGC | 1.02 |
| TGGGCAACCG | 1.02 |
| CGAGTGGCGG | 0.968 |

Query: Name the reported switch fluorescence ratio value associated with the sequence GAGTGCTTAA
Result: 0.971

Query: Name the reported switch fluorescence ratio value associated with the sequence TATTCACGGG
Result: 1.09
